Field: Percent Effect. Provide a value for each of the molecules that follow.
Biological target: Arginase-2, mitochondrial (Homo sapiens)
Sequence (whole entry): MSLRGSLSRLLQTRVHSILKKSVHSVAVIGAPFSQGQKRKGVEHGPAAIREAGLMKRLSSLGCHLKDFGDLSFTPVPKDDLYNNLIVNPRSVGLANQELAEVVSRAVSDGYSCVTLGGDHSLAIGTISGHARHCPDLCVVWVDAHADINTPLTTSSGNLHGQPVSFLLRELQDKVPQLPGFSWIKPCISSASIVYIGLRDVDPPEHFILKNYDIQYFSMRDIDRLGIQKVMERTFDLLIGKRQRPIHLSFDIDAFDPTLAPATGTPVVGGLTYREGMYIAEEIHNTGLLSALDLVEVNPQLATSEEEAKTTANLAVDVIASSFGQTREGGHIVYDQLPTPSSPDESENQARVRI
Assay: in vitro enzyme assay to detect the production of urea directly proportional to the activity of Arginase II
Type: functional
Parameters: scale not given: in the data most compounds retested in dose-response had high values
Conditions: 33.3 µM
The answer is to be given in %; state only the numeric part.

Recorded Percent Effect of Cc1noc(C)c1CN1CCOC2(CCCN(c3nccs3)C2)C1 (centres undefined) , please.
-56.1

Please look up its Percent Effect: CC(C)CN1CCC2(C1)CN(c1ncccn1)C2
-3.03

Fill in the blank: the reported Percent Effect of O=C(NCC1CC1)[C@H]1C[C@@H]2[C@@H](C1)OCCN2Cc1cccnc1 is ____.
-52.5

What value of measured Percent Effect is listed for COc1cccc(CNC(C)Cn2cccn2)c1OC (centres undefined) ?
1.42

Which Percent Effect is reported for this molecule? O=C(Cc1ccc(F)cc1)N1CCN(CC(O)C2CC2)CC1 (centres undefined)
-3.64

Form field: reported Percent Effect of CCc1noc(C(C)N2CCNCC2)n1 (centres undefined)
-2.22

Requested read-out: Percent Effect. Entry: CC(C)(C)n1cc(C(=O)NCCCn2ccnc2)c2cccnc21
1.77

I would be grateful if you could share the reported Percent Effect for CC(C)=CCN1C(=O)[C@H]2CC[C@@H]1CN(Cc1cccnc1N)C2 .
3.53

For the molecule shown here, Cc1noc(C)c1CN1CC[C@H]2OCC[C@@]2(C(=O)N2CCCO2)C1 , give the reported Percent Effect.
3.24

Recorded Percent Effect for COC[C@@H]1CCC[C@]12CN(Cc1cccc(C)n1)CCO2 , please?
0.528

Query (molecule): CNCCc1nc2cc(Cl)ccc2[nH]1 ; field requested: Percent Effect
-3.65

Report Percent Effect for CN(C)C(=O)CN1C[C@@H]2CC[C@H](C1)N(C(=O)Cc1ccccc1Cl)C2 please.
0.798

Suppose we examine the molecule O=C(COc1cccc(F)c1)N1C[C@@H](O)[C@H](N2CCCC2)C1 ; what Percent Effect value has been reported?
0.696

Form field: reported Percent Effect of CCOCC(O)CN1CCN(C(=O)Cc2ccc(C)nc2)CC1 (centres undefined)
3.83

Recorded Percent Effect of Cc1nc(CN2C[C@@H]3OCCN(c4ncc(F)cn4)[C@@H]3C2)cs1 , please.
-58.6

Please give the measured Percent Effect for this molecule: COCCNC(=O)[C@@]12CCO[C@@H]1CCN(Cc1c(C)noc1C)C2
3.24

Report Percent Effect for CN(C)c1ncc2c(n1)C1(CCN(CC3CC3)C1)COC2 (centres undefined) please.
0.798

// returns reported Percent Effect for input Cc1ncsc1CN1CC[C@H]2C[C@H](c3ccncn3)O[C@@H]2C1
0.645

// lookup Percent Effect for Cc1nn(C)c(N(C)C)c1CNC(C)Cc1c(F)cccc1F (centres undefined)
5.12

What value of measured Percent Effect is listed for CC(=O)N1CCN(Cc2ccccn2)CC2(CC(=O)N(C)C2)C1 (centres undefined) ?
-1.37

Which Percent Effect value belongs to CSc1nccc(N2CCN(C)C3(CCNC(=O)CC3)C2)n1 (centres undefined) ?
5.73

Give the measured Percent Effect of COCCN1CCC2(COCc3cnc(N4CCOCC4)nc32)C1 (centres undefined) .
-2.1

Given O=C1C[C@H]2[C@H](CCN2Cc2ccccn2)N1CC1CC1 , state its recorded Percent Effect.
5.02

Consider the molecule shown here: O=C1CO[C@@H]2CN(Cc3cccs3)C[C@H]2N1Cc1ccncc1 What is its recorded Percent Effect?
10.9
